settings: in acetonitrile, 323.15 K
parameter: solubility (mole fraction)

# solubility (mole fraction) of CC(C)C(=O)Nc1ccc([N+](=O)[O-])c(C(F)(F)F)c1 = 0.375

---

conditions: in ethanol, 288.15 K
parameter: solubility (mole fraction)
Write the number on its own, no unit after it.

# solubility (mole fraction) of CC(C)C(=O)Nc1ccc([N+](=O)[O-])c(C(F)(F)F)c1 = 0.0522

---

conditions: in isopropanol, 298.15 K
parameter: solubility (mole fraction)
Write the number on its own, no unit after it.

# solubility (mole fraction) of CC(C)C(=O)Nc1ccc([N+](=O)[O-])c(C(F)(F)F)c1 = 0.0979

---

conditions: in acetonitrile, 288.15 K
parameter: solubility (mole fraction)
Write the number on its own, no unit after it.

# solubility (mole fraction) of CC(C)C(=O)Nc1ccc([N+](=O)[O-])c(C(F)(F)F)c1 = 0.0939

---

conditions: in water, 283.15 K
parameter: solubility (mole fraction)

# solubility (mole fraction) of CC(C)C(=O)Nc1ccc([N+](=O)[O-])c(C(F)(F)F)c1 = 3.17e-07

---

conditions: in water, 308.15 K
parameter: solubility (mole fraction)

# solubility (mole fraction) of CC(C)C(=O)Nc1ccc([N+](=O)[O-])c(C(F)(F)F)c1 = 1.07e-06

---

conditions: in water, 313.15 K
parameter: solubility (mole fraction)
Write the number on its own, no unit after it.

# solubility (mole fraction) of CC(C)C(=O)Nc1ccc([N+](=O)[O-])c(C(F)(F)F)c1 = 1.32e-06

---

settings: in acetonitrile, 318.15 K
parameter: solubility (mole fraction)
Write the number on its own, no unit after it.

# solubility (mole fraction) of CC(C)C(=O)Nc1ccc([N+](=O)[O-])c(C(F)(F)F)c1 = 0.314

---

conditions: in water, 303.15 K
parameter: solubility (mole fraction)
Write the number on its own, no unit after it.

# solubility (mole fraction) of CC(C)C(=O)Nc1ccc([N+](=O)[O-])c(C(F)(F)F)c1 = 8.38e-07

---

conditions: in ethanol, 283.15 K
parameter: solubility (mole fraction)

# solubility (mole fraction) of CC(C)C(=O)Nc1ccc([N+](=O)[O-])c(C(F)(F)F)c1 = 0.0435

---

details: in water, 323.15 K
parameter: solubility (mole fraction)
Write the number on its own, no unit after it.

# solubility (mole fraction) of CC(C)C(=O)Nc1ccc([N+](=O)[O-])c(C(F)(F)F)c1 = 2.06e-06

---

settings: in acetonitrile, 293.15 K
parameter: solubility (mole fraction)
Write the number on its own, no unit after it.

# solubility (mole fraction) of CC(C)C(=O)Nc1ccc([N+](=O)[O-])c(C(F)(F)F)c1 = 0.115

---

conditions: in isopropanol, 303.15 K
parameter: solubility (mole fraction)
Write the number on its own, no unit after it.

# solubility (mole fraction) of CC(C)C(=O)Nc1ccc([N+](=O)[O-])c(C(F)(F)F)c1 = 0.11

---

conditions: in ethanol, 313.15 K
parameter: solubility (mole fraction)
Write the number on its own, no unit after it.

# solubility (mole fraction) of CC(C)C(=O)Nc1ccc([N+](=O)[O-])c(C(F)(F)F)c1 = 0.116

---

settings: in ethanol, 293.15 K
parameter: solubility (mole fraction)

# solubility (mole fraction) of CC(C)C(=O)Nc1ccc([N+](=O)[O-])c(C(F)(F)F)c1 = 0.0617
